- System: HCT-116 colon
- ASSAY INFO: NCI-60 one-dose screen, 48 h
- EXPERIMENTAL CONDITIONS: 10 µM unless noted
- Description: Growth inhibition of the HCT-116 human tumor cell line is measured as a screen for anti-cancer activity. Cells are grown in 96 well plates and exposed to the test compound for 48 hours. Compounds are tested at a single concentration, which is 10^-5 M for most compounds. The reported endpoint is percent growth (GI% or GIPRCNT), where numbers from 0 - 100% represent growth inhibition, and numbers from -100% - 0 represent cell death. For example, a value of 40 represents 60% growth inhibition. […]
About 83,000 compounds went through this panel and 20% of them were active in at least one assay; those are over-represented in the sample as a whole. The source made the active and inactive calls. How the source made its calls: active means growth percent below 10; inactive means the rest.
Possible outcomes: active, inactive

COMPOUND	CLASSIFICATION
CN(C)C(=O)OCc1ccc2c(Cl)cc(Cl)c(O)c2n1	inactive
CN1C(=O)N(C)C2C1NN=c1s/c(=C\c3ccccc3F)c(=O)n12 (stereo not drawn)	inactive
CCN(CC)CCCNC(=O)c1c2c(n3ccccc13)C(=O)c1ncccc1C2=O	active
CC(C)(C)[C@H](OCc1cn([C@H]2C[C@@H](O)[C@@H](CO)O2)c(=O)[nH]c1=O)c1ccc(C#Cc2ccccc2)cc1[N+](=O)[O-]	inactive
COc1ccc(S(=O)(=O)N(C)c2oc(-c3ccc(Cl)cc3)nc2C#N)cc1	inactive
C=CCNc1ccc2c3c(cccc13)C(=O)N(CC=C)C2=O	inactive
O=C(NS(=O)(=O)c1ccccc1)n1cc(-c2ccncc2)c(-c2cc(O)cc(Cl)c2)n1	inactive
C=CCOC(=O)C1=C(C)N(CC)C(=O)N(CC)C1c1c(Cl)n(C)c2ccccc12 (stereo not drawn)	inactive
COc1ccc(N2C(=O)/C(=C/C(Cl)=C/c3ccc([N+](=O)[O-])cc3)SC2=S)cc1	active
Nc1cc(-c2ccc(Cl)cc2)nn1-c1nc(-c2ccc(Br)cc2)cs1	inactive
COC(=O)c1c(C)nc(C)c2c1C(=O)C(Br)=C(NCCCCO)C2=O	inactive
COc1ccc(-c2nc3cc(C(=O)NC4CCCCC4)ccc3n2C2CCCCC2)cc1	inactive
C=C1CC[C@@H]2[C@](C)(COC(C)=O)[C@H](OC(C)=O)CC[C@@]2(C)[C@@H]1CC(Nc1ccc(S(=O)(=O)Nc2nccc(C)n2)cc1)C1=CCOC1=O (stereo partly drawn)	active
CC(=O)CC(=O)c1ccccc1.[Cu+2]	inactive
Nc1c(C(=O)c2ccc(Cl)cc2)sc(Nc2ccccc2)c1-c1nc2ccccc2s1	inactive
O=C(CSc1nnc(-c2cc(-c3ccc(Cl)cc3)nc3ccccc23)n1-c1ccccc1)Nc1ccc(Cl)cc1	inactive
C=CCn1c(SCC(=O)Nc2ccc(C(=O)/C=C/c3ccc(Cl)cc3)cc2)nnc1-c1ccc(Cl)c(Cl)c1	active
COc1ccccc1NC(=O)n1c(=O)cc(C)c2ccc(O)cc21	inactive
O=C(O)c1nn(-c2ccc(Cl)cc2)nc1N1CCCC1	inactive
COC(=O)CCc1c(/C=C2\N=C(c3ccc[nH]3)C=C2OC)[nH]c(C)c1C(=O)OCc1ccccc1	active
CN1CCN(Cc2ccc(NC(=O)c3cc(C#Cc4cnc(N)c5ncccc45)n(C)n3)cc2C(F)(F)F)CC1	inactive
COc1cc(C(=O)c2c(-c3ccccc3)oc3ccccc23)cc(OC)c1O	inactive
COc1ccc(Nc2nccc(Nc3ccc4[nH]ncc4c3)n2)cc1	inactive
O=C(CSc1nnc(-c2ccc(Cl)c(Cl)c2)n1-c1ccccc1)Nc1ccc(C(=O)/C=C/c2ccc(Cl)cc2)cc1	active
O=C1c2c(c3c4cc(F)ccc4oc3c3[nH]c4ccccc4c23)C(=O)N1O	inactive
Cn1nc(-c2ccc(Cl)cc2)nc2c(=O)n(C)c(=O)nc1-2	active
CC(=O)Oc1ccccc1C(=O)N(Cc1ccc2c(Cl)cc(Cl)c(O)c2n1)c1ccccc1	inactive
Cc1ccc2c(c1)CC(O)CC1C(=O)N(CCO)CC(=O)N21 (stereo not drawn)	inactive
COc1cccc(NC(=O)c2sc3nc(C)c(C(=O)c4ccccc4)cc3c2N)c1	inactive
C#CC(F)(F)[C@]1(O)CCC2C3CCC4=CC(=O)CCC4=C3[C@@H](c3ccc(N(C)C)cc3)C[C@@]21C (stereo partly drawn)	inactive
Cc1ccc2c(n1)C[C@H](C(C)(C)O)CC[C@H]2C	inactive
CCN1C(=O)N(CC)C2C1NC(=S)N2/N=C/C=C/c1cccs1 (stereo not drawn)	inactive
Cc1cc2c(C(C)C)c(O)c(O)c(/C=N/O)c2c(O)c1-c1c(C)cc2c(C(C)C)c(O)c(O)c(/C=N/O)c2c1O	inactive
COc1ccc(/C=C/C(=O)c2ccc(-n3cc(CN4CCN(c5cc6c(cc5F)c(=O)c(C(=O)O)cn6C5CC5)CC4)nn3)cc2)cc1	active
COC(=O)c1ccc(-n2cc(CCCOS(=O)(=O)c3ccc(F)cc3)nn2)cc1	inactive
COc1cc(NC(=O)c2cncnc2Nc2ccc3c(ccn3Cc3cccc(F)c3)c2)cc(OC)c1	inactive
CN(CCNc1ccc(C(=N)N)cc1)c1ccc(C(=N)N)cc1	inactive
CCCS(=O)(=O)Nc1cccc(Nc2ncnc3cc(NC(=O)CCl)ccc23)c1Cl	active
